The reported numbers originate from PubChem BioAssay (NCI).

System: HL-60(TB) leukemia
assay-explanation: NCI-60 one-dose screen, 48 h
cond: 10 µM unless noted
The panel holds about 83,000 compounds, 20% with a hit somewhere; the sample as a whole holds those more often. Calls of active or inactive are those of the source. How the source made its calls: active means growth percent below 10; inactive means the rest.
Assign a class; possible classes are active, inactive

molecule=COc1cc(-c2nc3ccccc3s2)ccc1NC(=O)COc1ccc(Cl)cc1 assigned_category=inactive

In: For CCCCOc1ccc(/C(C)=N/Nc2cc(C)nc3ccc(Br)cc23)cc1 , which call appears in the assay record?
Out: inactive

In: Entry CCCCCCCCCCC(C(O)c1ccccc1)N1CCCCC1 (stereo not drawn) please
Out: active

----------
System: T-47D breast
assay-explanation: NCI-60 one-dose screen, 48 h (100 = growth as untreated, 0 = no growth, -100 = all killed)
cond: 10 µM unless noted
About 83,000 compounds went through this panel and 20% of them were active in at least one assay; those are over-represented in the sample as a whole.
outcome-measure: growth (%)
Give the value in % but do not write % after it.

molecule=C[CH2][Sn]([CH2]C)([CH2]C)[NH]S(=O)(=O)c1ccc(C)cc1 number=100
molecule=CNC(=O)Oc1ccccc1 number=133

We next turn to a different molecule, shown below.
In: Any idea what its growth is? The molecule is CCOc1c(Cl)cc(CNC(C)C(O)c2ccccc2)cc1OC (stereo not drawn)
Out: 86
